Test system: WT Max(13-93) synthetic (M65Nle)
Assay comment: PBM 8-mer E-score (E-score (rank enrichment, -0.5 to 0.5)); higher = stronger preferential binding
The full ranking holds about 33,000 sequences; the median of “E-score (rank enrichment, -0.5 to 0.5)” is about -0.0075, and the highest 2% start at about 0.23. This excerpt belongs to a sample that is enriched for the highest values.
Field: PBM 8-mer E-score. Provide a value for each of the sequences that follow.
Reply: number alone, nothing else.

Q. // returns reported PBM 8-mer E-score for input `CACCGCGA`
A. -0.226

Q. // returns reported PBM 8-mer E-score for input `TCGTGTAA`
A. 0.1

Q. // returns reported PBM 8-mer E-score for input `TATCATGA`
A. 0.272

Q. // returns reported PBM 8-mer E-score for input `TATGCTGA`
A. -0.0828

Q. // returns reported PBM 8-mer E-score for input `CAGTGAAC`
A. 0.0267

Q. // returns reported PBM 8-mer E-score for input `GCGTGGGA`
A. 0.238

Q. // returns reported PBM 8-mer E-score for input `ACGTGCAA`
A. 0.3

Q. // returns reported PBM 8-mer E-score for input `AATTATCG`
A. 0.132

Q. // returns reported PBM 8-mer E-score for input `CCCGGAAG`
A. -0.252

Q. // returns reported PBM 8-mer E-score for input `ATCCTTTC`
A. 0.0595

Q. // returns reported PBM 8-mer E-score for input `TCGCTGAA`
A. -0.0377

Q. // returns reported PBM 8-mer E-score for input `AAACATGG`
A. 0.207

Q. // returns reported PBM 8-mer E-score for input `ACTGGTTG`
A. -0.086

Q. // returns reported PBM 8-mer E-score for input `ACCAGACA`
A. -0.0218

Q. // returns reported PBM 8-mer E-score for input `CAACATGC`
A. 0.119

Q. // returns reported PBM 8-mer E-score for input `AATCATGG`
A. 0.0882

Q. // returns reported PBM 8-mer E-score for input `ATAGCGAG`
A. -0.0262

Q. // returns reported PBM 8-mer E-score for input `ACCCCGCG`
A. -0.0797

Q. // returns reported PBM 8-mer E-score for input `GAAAATGA`
A. 0.0385

Q. // returns reported PBM 8-mer E-score for input `CGCGATGA`
A. -0.0499

Q. // returns reported PBM 8-mer E-score for input `AGAATGCC`
A. -0.0707

Q. // returns reported PBM 8-mer E-score for input `TATTATCA`
A. 0.2

Q. // returns reported PBM 8-mer E-score for input `ACATCGCC`
A. 0.0533

Q. // returns reported PBM 8-mer E-score for input `CGCCCGGA`
A. -0.201

Q. // returns reported PBM 8-mer E-score for input `AATCAACA`
A. 0.283

Q. // returns reported PBM 8-mer E-score for input `AATCCAAC`
A. 0.0162

Q. // returns reported PBM 8-mer E-score for input `TCGTGCAA`
A. 0.131

Q. // returns reported PBM 8-mer E-score for input `TATCAACA`
A. 0.192

Q. // returns reported PBM 8-mer E-score for input `TCGCTGCA`
A. -0.149

Q. // returns reported PBM 8-mer E-score for input `GTATAAAC`
A. 0.097

Q. // returns reported PBM 8-mer E-score for input `AACCCCCT`
A. -0.12

Q. // returns reported PBM 8-mer E-score for input `CCCCCCGA`
A. -0.154

Q. // returns reported PBM 8-mer E-score for input `ACGTGGGG`
A. 0.164

Q. // returns reported PBM 8-mer E-score for input `GATCAACA`
A. -0.0789

Q. // returns reported PBM 8-mer E-score for input `ACGTGGCA`
A. 0.33

Q. // returns reported PBM 8-mer E-score for input `AGTGCCCC`
A. -0.0153

Q. // returns reported PBM 8-mer E-score for input `CGCACTGA`
A. -0.179

Q. // returns reported PBM 8-mer E-score for input `AGGTGGGA`
A. 0.0263

Q. // returns reported PBM 8-mer E-score for input `TATCATAA`
A. 0.239

Q. // returns reported PBM 8-mer E-score for input `AATCATGT`
A. 0.235

Q. // returns reported PBM 8-mer E-score for input `CACCTGGC`
A. 0.0136

Q. // returns reported PBM 8-mer E-score for input `AATCATTA`
A. 0.223

Q. // returns reported PBM 8-mer E-score for input `ACGTGTAC`
A. 0.354

Q. // returns reported PBM 8-mer E-score for input `ACTGCAGT`
A. -0.0688

Q. // returns reported PBM 8-mer E-score for input `CGCGACAC`
A. 0.045

Q. // returns reported PBM 8-mer E-score for input `CATTATCG`
A. -0.0926

Q. // returns reported PBM 8-mer E-score for input `CTTTAAGA`
A. 0.0629

Q. // returns reported PBM 8-mer E-score for input `ATGATCGC`
A. -5e-06

Q. // returns reported PBM 8-mer E-score for input `ACCACATA`
A. 0.00899

Q. // returns reported PBM 8-mer E-score for input `ATATAAAC`
A. 0.249

Q. // returns reported PBM 8-mer E-score for input `AGCACATA`
A. 0.0511

Q. // returns reported PBM 8-mer E-score for input `CTGCGTGC`
A. -0.0949

Q. // returns reported PBM 8-mer E-score for input `AGGAGGAC`
A. -0.0293

Q. // returns reported PBM 8-mer E-score for input `ACGTGGCT`
A. 0.286

Q. // returns reported PBM 8-mer E-score for input `GAGTGGGA`
A. -0.0159

Q. // returns reported PBM 8-mer E-score for input `ATCACATG`
A. 0.37

Q. // returns reported PBM 8-mer E-score for input `AACAGGTC`
A. -0.0763

Q. // returns reported PBM 8-mer E-score for input `CCCGGAGC`
A. -0.218

Q. // returns reported PBM 8-mer E-score for input `CAGTCTGC`
A. -0.0522

Q. // returns reported PBM 8-mer E-score for input `CATCATTC`
A. -0.011

Q. // returns reported PBM 8-mer E-score for input `CGCTGTCA`
A. -0.225

Q. // returns reported PBM 8-mer E-score for input `CACGGTGC`
A. 0.0526

Q. // returns reported PBM 8-mer E-score for input `AAGTGGGA`
A. 0.212

Q. // returns reported PBM 8-mer E-score for input `AGGTGGCG`
A. 0.13

Q. // returns reported PBM 8-mer E-score for input `AACCTCGG`
A. -0.285

Q. // returns reported PBM 8-mer E-score for input `ATTCGGGA`
A. -0.128

Q. // returns reported PBM 8-mer E-score for input `AATTATCA`
A. 0.273

Q. // returns reported PBM 8-mer E-score for input `CCGTGGCC`
A. -0.112

Q. // returns reported PBM 8-mer E-score for input `ATGACCTC`
A. 0.0149

Q. // returns reported PBM 8-mer E-score for input `CCATCCAC`
A. 0.155

Q. // returns reported PBM 8-mer E-score for input `GAACATGC`
A. 0.164

Q. // returns reported PBM 8-mer E-score for input `CCGTGGGC`
A. -0.129

Q. // returns reported PBM 8-mer E-score for input `GGTTATCA`
A. 0.232

Q. // returns reported PBM 8-mer E-score for input `GCAGGATA`
A. -0.184

Q. // returns reported PBM 8-mer E-score for input `CAGCGTAG`
A. 0.0168

Q. // returns reported PBM 8-mer E-score for input `AAGTGGCT`
A. 0.0496

Q. // returns reported PBM 8-mer E-score for input `GTAATCAC`
A. -0.0619

Q. // returns reported PBM 8-mer E-score for input `AATCTACG`
A. -0.0669

Q. // returns reported PBM 8-mer E-score for input `CCGAGCGG`
A. -0.0233

Q. // returns reported PBM 8-mer E-score for input `GCGTGGCC`
A. 0.0675

Q. // returns reported PBM 8-mer E-score for input `TAAGGTAA`
A. 0.156

Q. // returns reported PBM 8-mer E-score for input `ACGTGGCC`
A. 0.247

Q. // returns reported PBM 8-mer E-score for input `ACGAAATG`
A. 0.158

###

Test system: WT Max(13-93) synthetic (M65Nle)
Assay comment: PBM 8-mer E-score (E-score (rank enrichment, -0.5 to 0.5)); higher = stronger preferential binding
In all, about 33,000 sequences were measured (“E-score (rank enrichment, -0.5 to 0.5)”: median about -0.0075, highest 2% from about 0.23 on). The sample holds the highest values, similar sequences and a random draw of the others, so the mix is not that of the screen.
Quantity: PBM 8-mer E-score
Reply: number alone, nothing else.

Q. // returns reported PBM 8-mer E-score for input `CATGTGAA`
A. 0.249

Q. // returns reported PBM 8-mer E-score for input `CATGTGAG`
A. 0.226

Q. // returns reported PBM 8-mer E-score for input `TATGTGAA`
A. 0.254
